Cited source for all entries: ChEMBL document CHEMBL1201862

- Test system: MCF7
- ASSAY NOTES: NCI tumour cell line growth inhibition, 48 h
Active and inactive are the calls of the source. No stated cut-off is given here; in the data, active = GI50 up to about 1.1 µM and inactive = higher.
A collection of molecules and their measured GI50

Consider the worked cases shown below.
CCNC(C)(C)C(SS)c1ccc(Br)cc1 (configuration not stated) = 39.4 µM (inactive)
Cc1cc(S(=O)(=O)/N=C(\NN)NNc2cccc(C(F)(F)F)n2)c(S)cc1Cl = > 10 µM (inactive)
Cc1cc(N(CCC#N)CCC#N)ccc1C(/N=N/c1ccccc1)=N\NC(=O)c1cc(Cl)ccc1O = 11.7 µM (inactive)
O=CC1C[C@@H](N2C(=O)O[C@@H](c3ccccc3)[C@H]2c2ccccc2)[C@@H]1COCc1ccccc1 (some centres not stated) = 17.8 µM (inactive)
COC1CC(C)([N+](=O)[O-])C(O)C(C)O1 (configuration not stated) = > 100 µM (inactive)
COCN1C(=O)[C@@H]2CCCN2C(=O)c2cc([N+](=O)[O-])ccc21 = 46.3 µM (inactive)
Cc1cccc(/C=C2\CCCc3ccccc3C2=O)c1 = 16.9 µM (inactive)
O=C1NC(=S)NC(=O)C1=C/C=C/c1ccc([N+](=O)[O-])cc1 = 14 µM (inactive)
CCOP(=O)(C=C=C1CCC2[C@@H]3CCc4cc(OC)ccc4C3CC[C@]12C)OCC (some centres not stated) = 6.14 µM (inactive)
COC(=O)C1=C(C=O)C2C=CC1C2 (configuration not stated) = > 100 µM (inactive)

Quote GI50 reported for CS(=O)(=O)OCCN(CCOS(C)(=O)=O)c1ccc(/C=N/c2ccc(-c3csc(Cc4ccccc4)n3)cc2)c(Cl)c1 please.
2.65 µM (inactive)

Quote GI50 reported for CCN(CC)CCCNc1ccc([N+](=O)[O-])c2nc3ccc(OC)cc3c(N)c12 please.
> 4.37 µM (inactive)

Quote GI50 reported for O=C(NNS(=O)(=O)c1ccccc1)c1csc(NC(=S)NC2CCCCC2)n1 please.
41 µM (inactive)

Quote GI50 reported for N[C@@H](CCC(=O)NCP(=O)(O)O)C(=O)O please.
> 100 µM (inactive)

Quote GI50 reported for Cc1ccc2nc(-c3ccc(N4C(=O)C(Cl)C4c4ccc(Cl)cc4)cc3)sc2c1 (configuration not stated) please.
14.6 µM (inactive)

Quote GI50 reported for CN(C)CN1C(=O)S/C(=C2\C(=O)N(CN(C)C)c3ccccc32)C1=O please.
38.5 µM (inactive)

Quote GI50 reported for O=C(COc1ccc(Cl)c(Cl)c1)Nc1ccc[n+](Cc2ccc(S(=O)(=O)F)c(Cl)c2)c1 please.
> 100 µM (inactive)

Quote GI50 reported for N/C(CSCCSC/C(N)=N/O)=N\O please.
> 100 µM (inactive)

Quote GI50 reported for CC(=O)n1c2ccc(Br)cc2c2nc3ccccc3nc21 please.
56.2 µM (inactive)

Quote GI50 reported for CC(C(N)=O)N(C)C(=O)c1cc2ccccc2[n+](Cc2ccccc2)c1 (configuration not stated) please.
> 100 µM (inactive)

Quote GI50 reported for Cc1c(CN2CCN(C)CC2)c(CN2CCN(C)CC2)c(C)n1-c1ccc(Cl)cc1 please.
39.5 µM (inactive)

Quote GI50 reported for Cc1cc2nc3n(c2cc1C)C(c1c(F)cccc1F)SC3 (configuration not stated) please.
17.5 µM (inactive)

====

- System: UACC-62
- ASSAY NOTES: NCI tumour cell line growth inhibition, 48 h
Activity calls are given as the source filed them. Rule as the data show it: active = GI50 up to about 1.1 µM and inactive = higher.
QUANTITY NAME: GI50

Quote GI50 reported for Cc1cc2c(c(C(N)=O)c1C)-c1cccc(Cl)c1C2=O please.
> 100 µM (inactive)

Quote GI50 reported for N=C(N)N/N=C\c1ccc(C2CCNCC2)cc1 please.
> 100 µM (inactive)

Quote GI50 reported for N#Cc1[nH]c(=S)[nH]c1N please.
> 100 µM (inactive)

Quote GI50 reported for C=CC1(CC)/C(=N\O)C(CC)(CC)C(=O)N1O (configuration not stated) please.
> 100 µM (inactive)

Quote GI50 reported for CN(C)CN1C(=O)S/C(=C2\C(=O)N(CN(C)C)c3ccccc32)C1=O please.
65.3 µM (inactive)

Quote GI50 reported for CCOC(=O)c1cccc(NC(=O)CCl)c1 please.
1.52 µM (inactive)

Quote GI50 reported for c1ccc(C2CC(N3CCOCC3)=Nc3ccccc3N2)cc1 (configuration not stated) please.
> 100 µM (inactive)

====

- System: PC-3
- ASSAY NOTES: NCI tumour cell line growth inhibition, 48 h
Calls of active or inactive are those of the source. Cut-off read from the data, not from the text of the source: active = GI50 up to about 1.1 µM and inactive = higher.
Result category, one only: YES = active, NO = inactive

As a guide, the following entries are already answered.
c1cc(CN2CCNCCNCCNCC2)cc(CN2CCNCCNCCNCC2)c1 = NO
CC1=CC(=O)[C@@H](O)[C@]2(C)[C@H]3[C@@]4(O)OC[C@]35[C@H]([C@@H](C)[C@H]4O)[C@@H](OC(=O)C(C)(C)CO)C(=O)O[C@@H]5C[C@@H]12 = YES
Cc1cn(C2OC(CO[Si](C)(C)C(C)(C)C)C(N(C)O[Si](C)(C)C(C)(C)C)C2[Se]c2ccccc2)c(=O)[nH]c1=O (centres undefined) = NO

Now consider a different compound.
Which outcome was entered for the compound CC(=O)O[C@@H]1C=C(C)[C@H](CBr)O[C@@]2(C)CC[C@H](Br)C(C)(C)[C@H]12 in this test?
NO

====

- Test system: DMS-114
- ASSAY NOTES: NCI tumour cell line growth inhibition, 48 h
The source made the active and inactive calls. No stated cut-off is given here; in the data, active = GI50 up to about 1.1 µM and inactive = higher.
Result category, one only: active, inactive

As a guide, the following entries are already answered.
Cc1ccc(NC(=O)CC2C(=O)Nc3ccccc3S2(=O)=O)cc1C (centres undefined) = inactive
CN(Cc1cnc2nc(N)nc(N)c2n1)c1ccc(C(=O)N[C@@H](CCC(=O)O)C(=O)O)cc1 [METHOTREXATE] = active
Cc1ccc(NC(=O)/C(=N/NC(=O)C[N+](C)(C)C)c2nc3ccccc3nc2O)cc1 = inactive

Which outcome was entered for the compound COc1ccc(C2=NN(c3nsc4ccccc34)C(=O)CC2)cc1 in this test?
inactive

Which outcome was entered for the compound CN1C(c2ccccc2)CC(O)CC1c1ccccc1 (centres undefined) in this test?
inactive

Which outcome was entered for the compound CC(Oc1ccc2cc(C(=O)c3ccccc3)c(=O)oc2c1)C(=O)O (centres undefined) in this test?
inactive

Which outcome was entered for the compound CC(=O)OCC1OC(Sc2ccccn2)C=CC1OC(C)=O (centres undefined) in this test?
inactive

Which outcome was entered for the compound N#Cc1cc([N+](=O)[O-])ccc1NC(=O)/C(=N/N)C(C(=O)c1ccc(Cl)c(Cl)c1)C1OC(=O)c2ccccc21 (centres undefined) in this test?
inactive

====

- Test system: UACC-62
- ASSAY NOTES: NCI tumour cell line growth inhibition, 48 h
Active and inactive are the calls of the source. Cut-off read from the data, not from the text of the source: active = GI50 up to about 1.1 µM and inactive = higher.
QUANTITY NAME: GI50

Cc1cccc(Nc2nn3c(=O)c4c5c(sc4nc3s2)CCCC5)c1 = 0.647 µM (active)
COc1c(Cl)cc(Cl)cc1S(=O)O = > 100 µM (inactive)
NS(=O)(=O)c1cc2c(cc1Cl)NC(C(=O)NNC(=O)c1ccncc1)=NS2(=O)=O = > 100 µM (inactive)
CCCCCN1CCN(c2ncccn2)CC1 = > 100 µM (inactive)
O=C1SC(c2ccc(Cl)cc2)(c2ccc(Cl)cc2)c2ccccc21 = 98.4 µM (inactive)

Quote GI50 reported for O=c1ccccc2cccc(O)c12 please.
> 100 µM (inactive)

Quote GI50 reported for NS(=O)(=O)c1cc(S(N)(=O)=O)c(NC(=O)Nc2ccc(Cl)c(Cl)c2)c(Cl)c1Cl please.
> 100 µM (inactive)

====

- Test system: TK-10
- ASSAY NOTES: NCI tumour cell line growth inhibition, 48 h
Calls of active or inactive are those of the source. No stated cut-off is given here; in the data, active = GI50 up to about 1.1 µM and inactive = higher.
Result category, one only: TRUE (active), FALSE (inactive)

OC1(c2cccs2)c2cccc(Cl)c2C(O)(c2cccs2)c2c(Cl)cccc21 (configuration not stated) = FALSE

Which outcome was entered for the compound O=c1cc(N2CCCC2)[nH]c(=O)n1Cc1ccccc1 in this test?
FALSE

Which outcome was entered for the compound N=C(N)Nc1ccc(-c2ccc(NC(=N)N)cc2)cc1 in this test?
FALSE

Which outcome was entered for the compound CN1CCc2c(sc3ncn(Nc4ccc(Cl)cc4)c(=N)c23)C1 in this test?
FALSE

Which outcome was entered for the compound C=CCN1C(=O)/C(=C/c2ccc(OC)cc2)NC1=S in this test?
FALSE

====

A collection of molecules and their measured GI50
- Tested on: SNB-75
- ASSAY NOTES: NCI tumour cell line growth inhibition, 48 h
Activity calls are given as the source filed them. Cut-off read from the data, not from the text of the source: active = GI50 up to about 1.1 µM and inactive = higher.

CCOC(=N)CC(=O)Nc1ccccc1CC = > 100 µM (inactive)

Quote GI50 reported for COc1ccc2c(c1)c(CC(=O)O)c(C)n2C(=O)c1ccc(Cl)cc1 please.
39.9 µM (inactive)

Quote GI50 reported for COC(=O)[C@]12CSCN1C(=O)C(C(C)=O)=NN2C(=O)[C@](OC)(c1ccccc1)C(F)(F)F please.
8.17 µM (inactive)

Quote GI50 reported for NC(=O)C[S+]([O-])CC(N)C(=O)O (stereo unspecified) please.
> 100 µM (inactive)

Quote GI50 reported for CCCC(=O)n1[nH]c(=O)n(C(C)(C)C)c1=O please.
39.5 µM (inactive)

Quote GI50 reported for COC(=O)/C(C#N)=C(\Nc1ccccc1)N1CCOCC1 please.
> 100 µM (inactive)

Quote GI50 reported for COc1ccc(N2C(=O)C3c4[nH]c5ccccc5c4C4c5ccccc5CC4C3C2=O)cc1 (stereo unspecified) please.
> 100 µM (inactive)

Quote GI50 reported for COc1cc(C2C(Cl)C(=O)N2NC(=O)c2ccc(N)cc2)ccc1O (stereo unspecified) please.
75.5 µM (inactive)

Quote GI50 reported for O=c1[nH]nc(Cc2ccccc2)n1C1CCCC1 please.
> 100 µM (inactive)

Quote GI50 reported for C=CCc1cccc2cc(C(N)=O)c(=N)oc12 please.
54.7 µM (inactive)

Quote GI50 reported for Cc1cc(S(=O)(=O)Nc2n[nH]c(-c3ccc(Cl)cn3)n2)c(S)cc1Cl please.
80.9 µM (inactive)

Quote GI50 reported for CC1(C)CCCCC1/C=C/C(CC(O)(C(F)(F)F)C(F)(F)F)=N\Nc1ccc([N+](=O)[O-])cc1[N+](=O)[O-] (stereo unspecified) please.
1.31 µM (inactive)

Quote GI50 reported for CCCCCCCCCC1(N=[N+]=[N-])C(=O)c2ccccc2N(C)C1=O (stereo unspecified) please.
29.9 µM (inactive)

Quote GI50 reported for O=C1OC(c2ccc(Cl)cc2)=N/C1=C\c1ccccc1 please.
> 100 µM (inactive)
